# Test system: OVCAR-5 ovarian
# Assay notes: NCI-60 one-dose screen, 48 h (100 = growth as untreated, 0 = no growth, -100 = all killed)
# Test parameters: 10 µM unless noted
Compounds without any hit were thinned out: in the full panel of roughly 83,000, 20% have a hit.
Here the recorded growth is given for each entry.
Recorded endpoint: growth (%)

>>> print(df.to_string())
                                    molecule  recorded_endpoint  experimental_value
 0  Cc1ccc(N(C(=O)CCc2c[nH]c3ccccc23)[C@H](C(=O)Nc2ccc(Cl)cc2)c2cccc([N+](=O)[O-])c2)cc1             growth                98.4
 1  Cc1cc(NCc2cc(Nc3ccnc4cc(Cl)ccc34)ccc2F)nc(N2CCSCC2)n1             growth                78.7
 2  COc1c(CCC[P+](c2ccccc2)(c2ccccc2)c2ccccc2)cc2c(c1OC)OCO2             growth                30.4
 3    COc1ccc2c(c1)CCCN2c1c2ccccc2nc2ccccc12             growth                28.3
 4  CCN1C(=O)N(CC)C2Nn3c(s/c(=C4\C(=O)N(C)c5ccccc54)c3=O)=NC21 (stereo not given)             growth                53.8
 5  CC/C=C\CCC/C=C1/C(=O)C=C[C@@H]1C/C=C\CCCC(=O)O             growth                72.6
 6  C[C@@]1(CCC#N)[C@H]2CC[C@@H]3[C@H]4[C@H](C(=O)/C=C/c5cccnc5)CC[C@]4(C#N)CC[C@@]3(C)[C@]2(C)CC[C@H]1C(=O)/C=C/c1cccnc1             growth                 136
 7  COc1ccccc1N1C(=O)/C(=C/C2=Cc3ccccc3OC2)SC1=S             growth                99.2
 8  Nc1n[nH]c2cc(F)c([C@@H]3Nc4c(F)cc5[nH]ncc5c4[C@H]4C5CCC(C5)[C@@H]34)cc12 (stereo not given in full)             growth                35.1
 9  COc1ccc(-c2[nH]c(=S)n(C(CC3(C)NCC(=O)N3n3c(-c4ccccc4)cc(C)nc3=S)c3ccc(OC)cc3)c(=O)c2Br)cc1 (stereo not given)             growth                83.4
10  N=c1sc(Cc2ccc(Cl)cc2)cn1CC(=O)c1ccc(F)cc1             growth                  71
11  CNC(=O)c1cc(Oc2ccc3nc(Nc4ccc(Cl)c(C(F)(F)F)c4)ccc3c2)ccn1             growth                91.8
12         Cc1ccc(N2CCN(C(=S)c3cccs3)CC2)cc1             growth                96.8
13  CCCCCCCCCCCC(c1ccccc1)[N+](C)(C)C (stereo not given)             growth                17.3
14  O=C(Nc1cccc(Oc2nnc(Cl)c3ccccc23)c1)Nc1ccc(Cl)c(C(F)(F)F)c1             growth               -7.38
15  Cc1cccc(-c2nc(N(C)c3ccc4ncsc4c3)c3ccccc3n2)n1             growth                 108
16        Cc1ccc(Cl)cc1NC(=O)c1cc2ccccc2cc1O             growth               -5.91
17               N[C@@H](CCCCNCC(=O)O)C(=O)O             growth                 102
18  Cc1cc(NCCCCNc2ccnc3cc(Cl)ccc23)nc(Nc2ccc(C(=O)N3CCCC3)cc2)n1             growth                 108
19  Cc1nc2ccccc2n1CC1NC(=O)NC1=O (stereo not given)             growth                99.3

FYI, the data here is from PubChem BioAssay (NCI).
